Tested on: Oryza sativa, (L.) Tebonnet
ASSAY_TEXT: Rice tolerance to post-transplant applications under flooded paddy conditions (Example 187), ORYSAT (Rice, Tebonnet)
SETUP_CONDITIONS: 0.1250 kg/ha, rated three to four weeks after treatment
Reported herbicidal effect rating, ORYSAT (rice tolerance) values are given for each entry in this list.
READOUT_TYPE: herbicidal effect rating, ORYSAT (rice tolerance)

{"columns": ["MOLECULE", "READOUT_NUMBER"],
 "data": [
  ["Cc1ccc(OCC(=O)OC(C)C(C)(C)C)c(-c2nsc3ccc(-n4c(=O)cc(C(F)(F)F)n(C)c4=O)cc23)c1 (stereo not shown)", 0.0],
  ["COc1ccc(C(C)C)cc1-c1nsc2ccc(-n3c(=O)cc(C(F)(F)F)n(C)c3=O)cc12", 2.0],
  ["COC(=O)C(C)Oc1ccccc1Oc1noc2ccc(-n3c(=O)cc(C(F)(F)F)n(C)c3=O)cc12 (stereo not shown)", 4.0],
  ["COC(=O)COc1ccc(C)cc1-c1nsc2ccc(-n3c(=O)cc(C(F)(F)F)n(C)c3=O)cc12", 3.0],
  ["CCN(CC)c1nsc2ccc(-n3c(=O)cc(C(F)(F)F)n(C)c3=O)cc12", 0.0],
  ["Cn1c(C(F)(F)F)cc(=O)n(-c2ccc3snc(C(CCl)CCl)c3c2)c1=O", 6.0],
  ["COC(=O)COc1cc(C)c(C)cc1-c1nsc2ccc(-n3c(=O)cc(C(F)(F)F)n(C)c3=O)cc12", 7.0]
]}

###

Tested on: Cyperus serotinus, Rottb.
ASSAY_TEXT: Preemergence weed control under flooded paddy conditions, CYPSE (Flatsedge)
Assay type: in vivo
SETUP_CONDITIONS: 0.0620 kg/ha, preemergence, rated three to four weeks after treatment
READOUT_TYPE: CYPSE herbicidal rating

{"columns": ["MOLECULE", "READOUT_TYPE", "READOUT_NUMBER"],
 "data": [
  ["COC(=O)c1nsc2cc(F)c(-n3c(=O)cc(C(F)(F)F)n(C)c3=O)cc12 [Example 513]", "CYPSE herbicidal rating", 9.0],
  ["Cc1ccc(OC(C)(C)C(=O)OC(C)(C)C)c(-c2nsc3ccc(-n4c(=O)cc(C(F)(F)F)n(C)c4=O)cc23)c1 [Example 514]", "CYPSE herbicidal rating", 0.0],
  ["Cn1c(C(F)(F)F)cc(=O)n(-c2ccc3snc(C(=O)NS(=O)(=O)/C=C/c4ccccc4)c3c2)c1=O [Example 501]", "CYPSE herbicidal rating", 0.0],
  ["C=CCOc1c(I)cc(C)cc1-c1nsc2ccc(-n3c(=O)cc(C(F)(F)F)n(C)c3=O)cc12 [Example 505]", "CYPSE herbicidal rating", 0.0],
  ["COC(=O)COc1cc(C)c(I)cc1-c1nsc2ccc(-n3c(=O)cc(C(F)(F)F)n(C)c3=O)cc12 [Example 469]", "CYPSE herbicidal rating", 4.5],
  ["CC(C)N(C(C)C)S(=O)(=O)NC(=O)c1nsc2ccc(-n3c(=O)cc(C(F)(F)F)n(C)c3=O)cc12 [Example 500]", "CYPSE herbicidal rating", 0.0]
]}

###

Measured herbicidal effect rating, MOOVA accompanies every entry in the list below.
Test system: Monochoria vaginalis, Presl.
ASSAY_TEXT: Preemergence weed control under flooded paddy conditions, MOOVA (Monochoria); further: meaning of each grade not given here
Type: in vivo
SETUP_CONDITIONS: Rate 0.0320 kg/ha; preemergence, flooded paddy; rated three to four weeks after treatment

{"columns": ["COMPOUND", "herbicidal effect rating, MOOVA"],
 "data": [
  ["CCOCN(C(=O)c1nsc2ccc(-n3c(=O)cc(C(F)(F)F)n(C)c3=O)cc12)S(C)(=O)=O", 7.0],
  ["CCC(C)S(=O)(=O)NC(=O)c1nsc2ccc(-n3c(=O)cc(C(F)(F)F)n(C)c3=O)cc12 (stereo not drawn)", 9.0],
  ["Cn1c(C(F)(F)F)cc(=O)n(-c2ccc3snc(C(C#N)=Cc4ccccn4)c3c2)c1=O", 8.0],
  ["CCCCS(=O)(=O)NC(=O)COc1ccc(C)cc1-c1nsc2ccc(-n3c(=O)cc(C(F)(F)F)n(C)c3=O)cc12", 9.0],
  ["Cc1ccc(OC(C)C(=O)NS(C)(=O)=O)c(-c2nsc3ccc(-n4c(=O)cc(C(F)(F)F)n(C)c4=O)cc23)c1 (stereo not drawn)", 0.0],
  ["Cc1ccc(OCC(=O)N(C)O)c(-c2nsc3ccc(-n4c(=O)cc(C(F)(F)F)n(C)c4=O)cc23)c1", 9.0],
  ["Cn1c(C(F)(F)F)cc(=O)n(-c2cc3c(C(Br)Br)nsc3cc2F)c1=O", 9.0],
  ["Cn1c(C(F)(F)F)cc(=O)n(-c2ccc3snc(COCc4ccc(Cl)cc4Cl)c3c2)c1=O", 3.5],
  ["COCCOCCOC(=O)c1nsc2ccc(-n3c(=O)cc(C(F)(F)F)n(C)c3=O)cc12", 7.0],
  ["Cn1c(C(F)(F)F)cc(=O)n(-c2ccc3snc(COS(=O)(=O)c4ccccc4)c3c2)c1=O", 9.0],
  ["Cn1c(C(F)(F)F)cc(=O)n(-c2ccc3snc(COC(=O)CCl)c3c2)c1=O", 9.0],
  ["C=CS(=O)(=O)NC(=O)C(C)Oc1ccc(C)cc1-c1nsc2ccc(-n3c(=O)cc(C(F)(F)F)n(C)c3=O)cc12 (stereo not drawn)", 0.0],
  ["Cn1c(C(F)(F)F)cc(=O)n(-c2ccc3snc(C(=O)NS(=O)(=O)c4ccccc4)c3c2)c1=O", 6.0],
  ["Cn1c(C(F)(F)F)cc(=O)n(-c2ccc3snc(COCc4ccc(Cl)cc4)c3c2)c1=O", 3.0],
  ["CCCCS(=O)(=O)NC(=O)C(C)Oc1ccc(C)cc1-c1nsc2ccc(-n3c(=O)cc(C(F)(F)F)n(C)c3=O)cc12 (stereo not drawn)", 4.0]
]}

###

Test system: Cyperus serotinus, Rottb.
ASSAY_TEXT: Preemergence weed control under flooded paddy conditions, CYPSE (Flatsedge)
Format: in vivo
SETUP_CONDITIONS: 0.2500 kg/ha, preemergence weeds, herbicidal effect rating 0-9, three to four weeks after treatment
Under this convention, Met denotes CYPSE strictly below 6 and Not met denotes CYPSE at or above 6.

{"columns": ["COMPOUND", "ANSWER_LABEL"],
 "data": [
  ["Cn1c(C(F)(F)F)cc(=O)n(-c2ccc3snc(C(Br)S(=O)(=O)c4ccccc4)c3c2)c1=O (stereo not shown)", "Not met"],
  ["Cn1c(C(F)(F)F)cc(=O)n(-c2ccc3snc(C(=O)c4ccccc4)c3c2)c1=O", "Met"],
  ["COc1ccc(C)cc1-c1nsc2cc(Cl)c(-n3c(=O)cc(C(F)(F)F)n(C)c3=O)cc12", "Met"],
  ["Cn1c(C(F)(F)F)cc(=O)n(-c2ccc3snc(C(=O)Nc4nc(C(F)(F)F)c(Cl)s4)c3c2)c1=O", "Met"],
  ["Cn1c(C(F)(F)F)cc(=O)n(-c2ccc3snc(COC4CCCCO4)c3c2)c1=O (stereo not shown)", "Met"]
]}

###

The entries below are paired with their reported herbicidal effect rating ORYSAT.
Test system: Oryza sativa, (L.) Tebonnet
ASSAY_TEXT: Rice tolerance to post-transplant applications under flooded paddy conditions (Example 187), ORYSAT (Rice, Tebonnet); on herbicidal effect rating ORYSAT: meaning of each grade not given here
SETUP_CONDITIONS: Rate 0.1250 kg/ha, rated 3-4 weeks after treatment

{"columns": ["COMPOUND", "herbicidal effect rating ORYSAT"],
 "data": [
  ["CCOC(=O)C(F)(F)Oc1ccc(C)cc1-c1nsc2ccc(-n3c(=O)cc(C(F)(F)F)n(C)c3=O)cc12 [Example 559]", 1.0],
  ["C#CCOC(=O)C(C)(C)Oc1ccc(C)cc1-c1nsc2ccc(-n3c(=O)cc(C(F)(F)F)n(C)c3=O)cc12 [Example 528]", 7.0],
  ["Cc1ccc(OCC(=O)OCCC2OCC(C)(C)CO2)c(-c2nsc3ccc(-n4c(=O)cc(C(F)(F)F)n(C)c4=O)cc23)c1 [Example 533]", 5.0],
  ["CCCS(=O)(=O)NC(=O)COc1ccccc1-c1nsc2ccc(-n3c(=O)cc(C(F)(F)F)n(C)c3=O)cc12 [Example 556]", 8.0],
  ["Cc1ccc(OC(C)(C)C(=O)OCCCl)c(-c2nsc3ccc(-n4c(=O)cc(C(F)(F)F)n(C)c4=O)cc23)c1 [Example 544]", 9.0],
  ["Cc1ccc(OCC(N)=O)c(-c2nsc3ccc(-n4c(=O)cc(C(F)(F)F)n(C)c4=O)cc23)c1 [Example 539]", 1.0],
  ["COCC(C)OC(=O)C(C)(C)Oc1ccc(C)cc1-c1nsc2ccc(-n3c(=O)cc(C(F)(F)F)n(C)c3=O)cc12 (stereo not shown) [Example 532]", 0.0]
]}

###

Catalogue of CYPIR herbicidal effect rating values
Tested on: Cyperus iria
ASSAY_TEXT: Preemergence weed control under flooded paddy conditions, CYPIR (Rice Flatsedge)
Assay type: in vivo
SETUP_CONDITIONS: Rate 0.0625 kg/ha; preemergence, flooded paddy; rated three to four weeks after treatment
READOUT_TYPE: CYPIR herbicidal effect rating

{"columns": ["COMPOUND", "ASSAYED_SYSTEM", "READOUT_TYPE", "RESULT"],
 "data": [
  ["Cc1nsc2ccc(-n3c(=O)cc(C(F)(F)F)n(Cc4ccccc4)c3=O)cc12", "Cyperus iria", "CYPIR herbicidal effect rating", 0.0],
  ["C=C(C)C1CC=C(COCc2nsc3ccc(-n4c(=O)ccn(C)c4=O)cc23)CC1 (stereo not shown)", "Cyperus iria", "CYPIR herbicidal effect rating", 0.0],
  ["C#CCn1c(C(F)(F)F)cc(=O)n(-c2ccc3snc(C)c3c2)c1=O", "Cyperus iria", "CYPIR herbicidal effect rating", 0.0],
  ["Cn1c(C(F)(F)F)cc(=O)n(-c2ccc3snc(COCCCCl)c3c2)c1=O", "Cyperus iria", "CYPIR herbicidal effect rating", 7.0]
]}
